meta.source: paper PMC6792352

system: GH3-TRE-Luc cell line; conditions: read-out: AC50 (uM) modified / 1000; Tox21_110001=Tox21_110294; viability, 1 nM T3 present, 24 h
observedProperty: CC50 (µM)

[[record]]
compound = "CSc1ccc2c(c1)N(CCC1CCCCN1C)c1ccccc1S2 (stereo not shown) [Thioridazine]"
observedproperty = "CC50"
result = 6.53


---

assay: in vitro; conditions: rat, gh3-tre-luc cells, AC50 (uM) modified / 1000, Tox21_110001=Tox21_301361; viability, 1 nM T3 present, 24 h
observedProperty: CC50 at 24 h

[[record]]
molecularstring = "CNC(=O)Oc1ccccc1C(C)C"
result = "> 90 µM"

